System: LPS-activated RAW264.7 macrophages
Experiment Notes: TNF-α release
Format: cell-based, mouse
Conditions Used: ligand with RID-B; LPS 500 ng/ml, 48 h
Parameter: effect of co-incubation with RID-B on TNF-α levels

INSERT INTO assay_data (molecule, value) VALUES
  ('CCCCCCC(C)(C)c1ccc(C2CC(O)CCC2CCCO)c(O)c1 (stereo not shown)', 'have no effect'),
  ('CCCn1c(C)c(C(=O)c2cccc3ccccc23)c2ccccc21', 'have no effect');
